Quick list: P38 MAPK gene expression per entry.
test system: genes regulating the NF-κB pathway in human umbilical vein endothelial cells (HUVEC); assay: NF-κB pathway-specific gene expression microarray in HUVEC treated with PR peptides; assay type: cell-based; details: HUVEC, PR peptides 1 μM, 8 hours, relative to untreated controls
Ends that are not written are not given here.
Please reply with the bare figure in fold change and do not write the unit itself.

Guide cases for P38 MAPK gene expression, answers given:
Need P38 MAPK gene expression of RRRPRPPELPR [Peptide E8] , thanks.
−1.5

Same read-out for RARPRPPYLPR [Peptide A2] ?
−0.9

Same read-out for ARRPRPPYLPR [Peptide A1] ?
−1.1

Continuing:
Need P38 MAPK gene expression of RKRPRPPYLPR [Peptide K2] , thanks.
−1.4

Same read-out for ARRPRPPELPR [Peptide A1E8] ?
−1.6

Same read-out for KKKPRPPYLPR [KKK] ?
−1.3

Same read-out for RRRPRPPELPRW [Peptide E8W12] ?
−1.1

---

Quick list: pIC50 per entry.
molecular target: Mammalian (Human) 20s Proteasome (Homo sapiens, UniProt P25788); construct: purchased Boston Biochem (Cambridge, Mass.); test: Chymotrypsin-like (ChT-L) peptidase activity of 20S proteasome, N-succinyl-LLVY-AMC substrate; assay type: biochemical; details: chymotrypsin-like activity, 15-minute pre-incubation, 1 hour at 37° C., pH 7.5, 0.03% SDS; read-out: I50
Ends that are not written are not given here.
Give only the number. pIC50 is defined as minus log10 of concentration in molar units.

Guide cases for pIC50, answers given:
Need pIC50 of RRRPRPPELPR [Peptide E8] , thanks.
5.62

Same read-out for ARAPRPPYLPR [ARA] ?
4.95

Same read-out for RKRPRPPYLPR [Peptide K2] ?
6.27

Same read-out for RRRPRPPYLPA [Peptide A11] ?
6.16

Same read-out for H-RRRPRPPYLPRPRPPPFFPPRLPPRIPPGFPPRFPPRFP-OH [PR39, reference compound] ?
8.40

Continuing:
Need pIC50 of RRRPRPPELPRW [Peptide E8W12] , thanks.
5.58

Same read-out for RRRPRPAYLPR [Peptide A7] ?
6.07

Same read-out for RRAPRPPYLPR [Peptide A3] ?
5.50

Same read-out for RRRPRAPYLPR [Peptide A6] ?
5.91

Same read-out for ARRPRPPYLPR [Peptide A1] ?
5.55

---

Test system: genes regulating the NF-κB pathway in human umbilical vein endothelial cells (HUVEC)
Experiment: NF-κB pathway-specific gene expression microarray in HUVEC treated with PR peptides
Assay type: cell-based
Details: HUVEC, PR peptides 1 μM, 8 hours, relative to untreated controls
Protocol: Cell Culture. […] Total RNA Extraction and Gene Profiling by Microarray. […] The quality and quantity of total RNA was determined using RNA 6000 Nano chips (Agilent Technology, Santa Clara, Calif.). Gene profiling was performed using pathway-specific gene expression array for NF-κB signaling transduction (HS-016.2, SuperArray Bioscience Corp.). […] After background subtraction, the level of gene expression was determined as signal intensity units relative to total array intensity signal. […]
Ends that are not written are not given here.
ATTRIBUTE MEASURED: TRAF6 gene expression (fold change)
Please reply with the bare figure in fold change and do not write the unit itself.

Guide cases for TRAF6 gene expression, answers given:
Need TRAF6 gene expression of RRAPRPPYLPR [Peptide A3] , thanks.
−1.4

Same read-out for RRRPRPPELPRW [Peptide E8W12] ?
−1.2

Continuing:
Need TRAF6 gene expression of KKKPRPPYLPR [KKK] , thanks.
−1.3

Same read-out for RKRPRPPYLPR [Peptide K2] ?
−2.5

Same read-out for RARPRPPYLPR [Peptide A2] ?
−1.1

Same read-out for ARRPRPPYLPR [Peptide A1] ?
−1.1

Same read-out for RRRPRPPELPR [Peptide E8] ?
−1.2

Same read-out for RRKPRPPYLPR [Peptide K3] ?
−1.7

Same read-out for ARRPRPPELPR [Peptide A1E8] ?
−1.6
